Hi there, I'd appreciate the recorded pIC50 for every entry that follows.
# assay-target: V600E full-length B-Raf (Homo sapiens, UniProt P15056, V600E)
# Construct: 1 μM FSBA-MEK and 20 nM V600E full-length B-Raf; made in house; host or cells: sf9 insect cells (baculovirus)
# Sequence (P15056 whole entry V600E): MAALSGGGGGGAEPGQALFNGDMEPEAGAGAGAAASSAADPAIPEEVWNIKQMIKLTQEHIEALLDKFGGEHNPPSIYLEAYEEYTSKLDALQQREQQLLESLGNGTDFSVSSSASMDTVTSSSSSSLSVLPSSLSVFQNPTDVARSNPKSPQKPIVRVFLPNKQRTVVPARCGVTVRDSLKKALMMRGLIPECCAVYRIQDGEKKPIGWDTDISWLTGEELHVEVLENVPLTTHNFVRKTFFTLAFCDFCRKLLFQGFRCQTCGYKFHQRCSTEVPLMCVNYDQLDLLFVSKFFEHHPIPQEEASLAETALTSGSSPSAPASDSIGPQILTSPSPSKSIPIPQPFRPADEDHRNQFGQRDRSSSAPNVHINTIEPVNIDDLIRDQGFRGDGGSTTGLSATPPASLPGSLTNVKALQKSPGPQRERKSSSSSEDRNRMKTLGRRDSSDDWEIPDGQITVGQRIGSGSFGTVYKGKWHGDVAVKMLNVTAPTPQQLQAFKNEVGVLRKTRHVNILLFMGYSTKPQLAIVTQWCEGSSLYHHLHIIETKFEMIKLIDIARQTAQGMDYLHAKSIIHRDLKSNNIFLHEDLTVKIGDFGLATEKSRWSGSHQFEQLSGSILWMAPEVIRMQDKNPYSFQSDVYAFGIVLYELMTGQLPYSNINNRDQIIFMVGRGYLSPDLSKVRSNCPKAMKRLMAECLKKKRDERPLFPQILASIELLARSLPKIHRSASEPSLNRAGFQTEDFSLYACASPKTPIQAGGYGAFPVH
# measurement-protocol: B-Raf IC50 Assay (B-RAF V600E inhibition assay, Example A)
# Type: biochemical
# test-conditions: incorporation of radio labeled phosphate from [γ-33P]ATP into FSBA-modified wild-type MEK; 4 μM ATP, 20 nM V600E full-length B-Raf, 60-minute incubation, 22° C.; read-out: BRAF V600E IC50
Just the number, please; pIC50 means minus log10 of the concentration in mol/L.

query: Quick one: pIC50 of CCCS(=O)(=O)Nc1ccc(F)c(NC(=O)c2csc3c(NCC(C)C)ncnc23)c1F [Example 57] ?
result: 7.89

query: Quick one: pIC50 of CCCS(=O)(=O)Nc1ccc(F)c(NC(=O)c2csc3c(Nc4cnn(C)c4)ncnc23)c1F [Example 61] ?
result: 8.77

query: Quick one: pIC50 of CN(C)S(=O)(=O)Nc1ccc(F)c(NC(=O)c2csc3c(N)ncnc23)c1F [Example 29] ?
result: 7.06

query: Quick one: pIC50 of CCCS(=O)(=O)Nc1ccc(F)c(NC(=O)c2c[nH]c3c(N)ncnc23)c1F [Example 102] ?
result: 7.69

query: Quick one: pIC50 of CCCS(=O)(=O)Nc1ccc(F)c(NC(=O)c2csc3c(CC)ncnc23)c1F [Example 41] ?
result: 6.95

query: Quick one: pIC50 of O=C(Nc1c(F)c(F)cc(NS(=O)(=O)CCCF)c1F)c1csc2c(NC3CC3)ncnc12 [Example 97] ?
result: 9.15

query: Quick one: pIC50 of CCCS(=O)(=O)Nc1ccc(Cl)c(NC(=O)c2csc3c(N)ncnc23)c1F [Example 7] ?
result: 9.00

query: Quick one: pIC50 of CCCS(=O)(=O)Nc1ccc(Cl)c(NC(=O)c2csc3cncnc23)c1Cl [Example 107] ?
result: 8.02

query: Quick one: pIC50 of CCS(=O)(=O)Nc1ccc(F)c(NC(=O)c2csc3c(N)ncnc23)c1Cl [Example 4] ?
result: 8.37

query: Quick one: pIC50 of CCCS(=O)(=O)Nc1ccc(Cl)c(NC(=O)c2csc3c(NC4CC4)ncnc23)c1Cl [Example 66] ?
result: 9.70

query: Quick one: pIC50 of CCCS(=O)(=O)Nc1ccc(Cl)c(NC(=O)c2csc3cncnc23)c1F [Example 111] ?
result: 7.68

query: Quick one: pIC50 of CCCS(=O)(=O)Nc1ccc(Cl)c(NC(=O)c2csc3c(NC4CCOC4)ncnc23)c1Cl (centres unmarked) [Example 71] ?
result: 7.84

query: Quick one: pIC50 of CCCS(=O)(=O)Nc1ccc(F)c(NC(=O)c2snc3c(N)ncnc23)c1F [Example 34] ?
result: 8.30

query: Quick one: pIC50 of CCCS(=O)(=O)Nc1ccc(F)c(NC(=O)c2c[nH]c3c(NC)ncnc23)c1F [Example 103] ?
result: 6.94
